Experiment: CMC by uptake of fluorescent dye 1,6-diphenylhexatriene, fluorescence spectroscopy
Type: physicochemical
Settings: uptake of 1,6-diphenylhexatriene; 25 mM sodium phosphate pH 6.9; Table 1 and text
assayEndpoint: CMC (Critical Micelle Concentration)

{"columns": ["smilesInput", "recordedValue"],
 "data": [
  ["CCCCC(CCCC)(CC(=O)N(CCC[N+](C)(C)[O-])CCC[N+](C)(C)[O-])c1ccccc1", "10 mM"],
  ["CCCCC(CCCC)(CC(=O)N(CCCN(C)C)CCCN(C)C)c1ccccc1", "24 mM"],
  ["CCCCC(CCCC)(CC[N+](C)(C)[O-])c1ccccc1", "2.5 mM"],
  ["CCCCCCCCCCc1ccc(C(=O)N(CC)CC[N+](C)(C)[O-])cc1", "0.125 mM"]
]}

---

CMC (Critical Micelle Concentration) reference
Test: CMC by uptake of fluorescent dye 1,6-diphenylhexatriene, fluorescence spectroscopy
Assay type: physicochemical
Conditions: uptake of 1,6-diphenylhexatriene; 25 mM sodium phosphate pH 6.9; Table 1 and text

{"columns": ["smilesInput", "CMC (Critical Micelle Concentration)"],
 "data": [
  ["CCCCC(CCCC)(CC(=O)NC(C)(C)C[N+](C)(C)[O-])c1ccccc1", "1.2 mM"],
  ["CCCCC(CCCC)(CC(=O)NCC(C)(C)C[N+](C)(C)[O-])c1ccccc1", "7.5 mM"],
  ["CCCCC(CCCC)(CC(=O)NCC(C)(C)CN(C)C)c1ccccc1", "14.7 mM"],
  ["CCCCC(CCCC)(CC(=O)N(CC)CCN(C)C)c1ccccc1", "1.3 mM"],
  ["CCCCC(C)(CCCC)c1ccc(C(=O)N(CC)CC[N+](C)(C)[O-])cc1", "0.700 mM"],
  ["CCCCC(CCCC)(CC(=O)NCCCN(C)C)c1ccccc1", "2.8 mM"],
  ["CCCCC(CCCC)(CC(=O)N(CC)CC[N+](C)(C)[O-])c1ccccc1", "3 mM"]
]}

---

Assay: Aqueous solubility
Assay type: physicochemical
Conditions: water
assayEndpoint: solubility in water (in words)

{"columns": ["compound", "assayEndpoint", "recordedValue"],
 "data": [
  ["CC(C)(C)c1ccc(C(CC(=O)N(CC[N+](C)(C)[O-])CC[N+](C)(C)[O-])(c2ccc(C(C)(C)C)cc2)c2ccc(C(C)(C)C)cc2)cc1 [Detergent 4.59]", "solubility in water (in words)", "insoluble in water"],
  ["C[N+](C)([O-])CCN(CC[N+](C)(C)[O-])C(=O)CC(c1ccc(-c2ccccc2)cc1)(c1ccc(-c2ccccc2)cc1)c1ccc(-c2ccccc2)cc1 [Detergent 4.62]", "solubility in water (in words)", "insoluble in water"]
]}

---

Assay: Aqueous solubility
Format: physicochemical
Details: water; read-out: solubility in water

{"columns": ["smilesInput", "solubility"],
 "data": [
  ["C[N+](C)([O-])CCN(CC[N+](C)(C)[O-])C(=O)CC(c1ccccc1)(c1ccccc1)c1ccccc1", "> 2000 mM"]
]}

---

Test: CMC by uptake of fluorescent dye 1,6-diphenylhexatriene, fluorescence spectroscopy
Format: physicochemical
Settings: Table 2; dye uptake versus concentration monitored by fluorescence spectroscopy
Threshold 20 mM: CMC strictly smaller gives 1, otherwise 0.

{"columns": ["smilesInput", "category"],
 "data": [
  ["CCCCC(CC(=O)N(CCCN(C)C)CCCN(C)C)(c1ccccc1)c1ccccc1", 0],
  ["CCCCC(CCCC)(CC(=O)N(CCCN(C)C)CCCN(C)C)c1ccccc1", 0],
  ["CCCCC(CC(=O)N(CCCN(C)C)CCCN(C)C)(C1CCCCC1)C1CCCCC1", 1],
  ["CCCCC(CCCC)(CC(=O)N(CCCN(C)C)CCCN(C)C)C1CCCCC1", 1],
  ["CCCCCCC(CC(=O)N(CCCN(C)C)CCCN(C)C)(c1ccccc1)c1ccccc1", 1],
  ["CN(C)CCCN(CCCN(C)C)C(=O)CC1(c2ccccc2)CCCCCCC1", 0],
  ["CN(C)CCCN(CCCN(C)C)C(=O)CC(c1ccccc1)(c1ccccc1)c1ccc(C(C)(C)C)cc1", 1],
  ["CN(C)CCCN(CCCN(C)C)C(=O)CC1(C2CCCCC2)CCCCCCC1", 0],
  ["CCCCCCC(CCCC)(CCCC)CC(=O)N(CCCN(C)C)CCCN(C)C", 1],
  ["CCCCC(CCCC)(CCCC)CC(=O)N(CCCN(C)C)CCCN(C)C", 1],
  ["CN(C)CCCN(CCCN(C)C)C(=O)CC(c1ccccc1)(c1ccccc1)c1ccccc1", 0]
]}

---

Assay: Aqueous solubility
Assay type: physicochemical
Conditions: water; read-out: solubility
assayEndpoint: solubility (mM)

{"columns": ["smilesInput", "assayEndpoint", "unitInfo", "recordedValue"],
 "data": [
  ["O=C(O)C(c1ccccc1)(c1ccccc1)c1ccccc1", "solubility", "mM", 210]
]}

---

Assay: CMC by uptake of fluorescent dye 1,6-diphenylhexatriene, fluorescence spectroscopy
Assay type: physicochemical
Settings: uptake of 1,6-diphenylhexatriene; 25 mM sodium phosphate pH 6.9; Table 1 and text
Description: The CMCs of detergents 4.65-4.72 were determined by monitoring the uptake of a fluorescent dye (1,6-diphenylhexatriene) with increasing detergent concentration (Table 1, CMC's determined by dye uptake versus concentration monitored by fluorescence spectroscopy). […] The CMCs of 4.100 and 4.104 were determined by the uptake of the fluorescent dye 1,6-diphenylhexatriene. […] These values are substantially lower than the CMC of 4.65, which was determined to be 3 mM. […]

{"columns": ["smilesInput", "CMC (Critical Micelle Concentration), mM"],
 "data": [
  ["CCCCC(CCCC)(CC(=O)N(C)CCC[N+](C)(C)[O-])c1ccccc1", 3],
  ["CCCCC(CCCC)(CCN(C)C)c1ccccc1", 5],
  ["CCCCC(CCCC)(CC(=O)NCCC[N+](C)(C)[O-])c1ccccc1", 4.5],
  ["CCCCC(CCCC)(CC(=O)N(C)CCCN(C)C)c1ccccc1", 5]
]}
